- tgt: mTOR (Homo sapiens, UniProt P42345)
- experimentalProtocol: mTOR enzyme assay (DELFIA format, His6-S6K substrate)
- Type: biochemical
- studyConditions: read-out: mTOR Kinase Median IC50
Criterion: IC50 strictly under 40 nM. Met: label 1. Not met: label 0.

| compound | classification |
| --- | --- |
| CN(C)C(=O)C1CCN(c2ccnc3c2c(/C=C2\Oc4ccc(NC(=O)NC5CC5)cc4C2=O)cn3C)CC1 [Compound 291] | label 0 |
| CNC(=O)Nc1ccc2c(c1)C(=O)/C(=C/c1c[nH]c3ncc(OC)cc13)O2 [Compound 119] | label 0 |
| Cn1cc(/C=C2\Oc3ccc(N)cc3C2=O)c2c(-c3ccccc3)ccnc21 [Compound 58] | label 1 |
| Cn1cc(/C=C2\Oc3cccc(O)c3C2=O)c2c(-c3ccc(C(=O)Nc4ccc(F)cc4)cc3)ccnc21 [Compound 83] | label 1 |
| COc1ccc2c(n1)c(C=C1Oc3cc(O)cc(O)c3C1=O)cn2C [Compound 3] | label 0 |
| COCCN(C)C(=O)c1ccc(-c2ccnc3c2c(/C=C2\Oc4cccc(O)c4C2=O)cn3C)cc1 [Compound 175] | label 1 |
| CC(=O)c1ccc(-c2ccnc3c2c(/C=C2\Oc4cccc(O)c4C2=O)cn3C)cc1 [Compound 134] | label 1 |
| Cn1cc(/C=C2\Oc3cc(O)cc(O)c3C2=O)c2c(-c3ccc(S(N)(=O)=O)cc3)ccnc21 [Compound 17] | label 1 |
| CN1CCN(c2ccc(NC(=O)Nc3ccc4c(c3)C(=O)/C(=C/c3cn(C)c5nccc(N6CC7CCC(C6)O7)c35)O4)cn2)CC1 [Compound 231] | label 1 |
| Cn1cc(/C=C2\Oc3ccc(NC(=O)C(F)(F)F)cc3C2=O)c2c(-c3ccccc3)ccnc21 [Compound 156] | label 0 |
| CNC(=O)Nc1ccc2c(c1)C(=O)/C(=C/c1cn(C)c3nccc(-c4ccccc4)c13)O2 [Compound 38] | label 1 |
| CONC(=O)c1ccc(-c2ccnc3c2c(/C=C2\Oc4cccc(O)c4C2=O)cn3C)cc1 [Compound 192] | label 1 |
| COCCN(CCOC)C(=O)C1CCN(c2ccnc3c2c(/C=C2\Oc4ccc(NC(=O)Nc5cccnc5)cc4C2=O)cn3C)CC1 [Compound 251] | label 1 |
| COc1ccnc(CN(C)C(=O)C2CCN(c3ccnc4c3c(/C=C3\Oc5ccc(NC(=O)Nc6cccnc6)cc5C3=O)cn4C)CC2)c1 [Compound 224] | label 1 |
| Cn1cc(/C=C2\Oc3cccc(O)c3C2=O)c2c(-c3ccc(Oc4ccccc4)cc3)ccnc21 [Compound 84] | label 0 |

----------
- tgt: mTOR (Homo sapiens, UniProt P42345)
- experimentalProtocol: mTOR enzyme assay (DELFIA format, His6-S6K substrate)
- Format: biochemical
- studyConditions: read-out: mTOR Kinase Median IC50
readout: log10(IC50) (log10 of the value in µM)

| compound | tgt | readout | numericValue |
| --- | --- | --- | --- |
| Cn1cc(/C=C2\Oc3cccc(O)c3C2=O)c2c(N3CCCC(C(=O)N4CCCC4)C3)ccnc21 (stereo not shown) | mTOR (Homo sapiens, UniProt P42345) | log10(IC50) | -2.36 |
| CN(C)S(=O)(=O)c1ccc(-c2ccnc3c2c(/C=C2\Oc4cccc(O)c4C2=O)cn3C)cc1 | mTOR (Homo sapiens, UniProt P42345) | log10(IC50) | -2.54 |
| CN1CC2CC1CN2c1ccnc2c1c(/C=C1\Oc3cccc(O)c3C1=O)cn2C (stereo not shown) | mTOR (Homo sapiens, UniProt P42345) | log10(IC50) | -1.80 |
| Cn1cc(/C=C2\Oc3cc(O)cc(O)c3C2=O)c2c(-c3cccc(S(C)(=O)=O)c3)ccnc21 | mTOR (Homo sapiens, UniProt P42345) | log10(IC50) | -2.80 |
| CN(C)CCN(C)C(=O)C1CCN(c2ccnc3c2c(/C=C2\Oc4ccc(NC(=O)Nc5cccnc5)cc4C2=O)cn3C)CC1 | mTOR (Homo sapiens, UniProt P42345) | log10(IC50) | -1.37 |
| Cn1cc(/C=C2\Oc3ccc(NC(=O)Nc4ccc(N5CCOCC5)cc4)cc3C2=O)c2c(N3CC4CCC(C3)O4)ccnc21 | mTOR (Homo sapiens, UniProt P42345) | log10(IC50) | 0.53 |
| Cn1cc(/C=C2\Oc3cccc(N)c3C2=O)c2c(-c3ccccc3)ccnc21 | mTOR (Homo sapiens, UniProt P42345) | log10(IC50) | -1.28 |
